The reported measurements were obtained from the supplement of paper PMC10567573.

B1: MNAT1 (parent)
chain: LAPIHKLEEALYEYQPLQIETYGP

- Variants of: B1
- measurement_protocol: protein stability index of a GFP-peptide fusion (GPS, HEK-293T) (PSI 1-6); higher = more stable;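 note: lentivirally expressed fusions sorted by FACS into six bins by GFP to DsRed ratio, PSI derived from sequencing read proportions per bin multiplied by bin number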
- setup_conditions: c terminus: a fixed tail appended
Respond with true for protein stability index values of 2 and above, false for values below.

*Q* Identify whether the reported protein stability index of the following variant is 2 or greater: `Y14R`
*A* true

*Q* Now this one: `Y14L`
*A* true

*Q* Also `L11F` , if possible.
*A* true

*Q* Entry to check: `A2H`
*A* true

*Q* `A10P` , same question.
*A* true

*Q* Next record, please: `Q18E`
*A* true

*Q* Next entry: `Y12W`
*A* true

*Q* Ok, now `E20K`
*A* true

*Q* Now try `Y12P` .
*A* true

*Q* Consider next the variant `E9I` in the same way.
*A* true

*Q* Similarly, `I4G` ?
*A* true

*Q* Query `T21C` next
*A* true

*Q* Continue with `Y22I`
*A* false

*Q* Now consider `Y22W` .
*A* true

*Q* Would you kindly repeat that for `I19S` ?
*A* true

*Q* Try this variant too: `L17P`
*A* true

*Q* Lookup `L7S`
*A* true

*Q* Next up: `L7H`
*A* true

*Q* Try the variant `A10G`
*A* true

*Q* // query: `G23T`
*A* false

*Q* Input `E20H`
*A* false

*Q* Try the variant `L11H`
*A* true

*Q* Would you mind doing `G23Y` as well?
*A* false

*Q* And what about the variant `P16L` ?
*A* false

*Q* Lookup `H5S`
*A* true

*Q* And for `P16A` ?
*A* true

*Q* Request: `E13N`
*A* false

*Q* Then what about the variant `E20R` ?
*A* false

*Q* Next: `H5L`
*A* false

*Q* Query `A2P` next
*A* true

*Q* What about `E13K` ?
*A* false

*Q* How about `E13T` ?
*A* true

*Q* And the next one, `Y22H` ?
*A* false

*Q* Thanks! And `H5T` ?
*A* false

*Q* Try this variant too: `E20Y`
*A* true

*Q* Moving on to `L1R`
*A* true

*Q* Item: `K6R`
*A* false

*Q* Another: `L7V`
*A* true

*Q* Ok, now `E20W`
*A* true

*Q* What do we get for `Q18A` ?
*A* false

*Q* Could you do the same for `L11W` , please?
*A* true

*Q* Now this one: `E20I`
*A* true
